# Tested on: DMF5 TCR
# Procedure details: SPR binding of MART126(27L)-35 peptide variants/HLA-A2 to DMF5 TCR
# Condition parameters: ELA peptide substitution vs native peptide, SPR steady state, 25° C.
# Experimental: Briefly, the TCR a and b chains, the HLA-A2 heavy chain, and b2-microglobulin (b2m) were generated in Escherichia coli as inclusion bodies, which were isolated and denatured in 8 M urea. TCR a and b chains were diluted in TCR refolding buffer (50 mM Tris (pH 8), 2 mM EDTA, 2.5 M urea, 9.6 mM cysteamine, 5.5 mM cystamine, 0.2 mM PMSF) at a 1:1 ratio. […] Refolded protein absorptions at 280 nm were measured spectroscopically and concentrations determined with appropriate extinction coefficients. […]

- Substance: "pI5E: MART126(27L)-35 (ELA) peptide with I5E substitution, presented by HLA-A2 (ELAGEGILTV; MART-1 26-35 peptide; UniProt Q16655 26-35, looked up, variant A27L I30E)"
  ΔΔG°: "3.07 kcal/mol"
- Substance: "PE1Q: MART126(27L)-35 (ELA) peptide with E1Q substitution, presented by HLA-A2 (QLAGIGILTV; MART-1 26-35 peptide; UniProt Q16655 26-35, looked up, variant A27L E26Q)"
  ΔΔG°: "1.0 kcal/mol"
- Substance: "pE1F: MART126(27L)-35 (ELA) peptide with E1F substitution, presented by HLA-A2 (FLAGIGILTV; MART-1 26-35 peptide; UniProt Q16655 26-35, looked up, variant A27L E26F)"
  ΔΔG°: "2.26 kcal/mol"
- Substance: "pE1D: MART126(27L)-35 (ELA) peptide with E1D substitution, presented by HLA-A2 (DLAGIGILTV; MART-1 26-35 peptide; UniProt Q16655 26-35, looked up, variant A27L E26D)"
  ΔΔG°: "1.3 kcal/mol"
- Substance: "pT9W: MART126(27L)-35 (ELA) peptide with T9W substitution, presented by HLA-A2 (ELAGIGILWV; MART-1 26-35 peptide; UniProt Q16655 26-35, looked up, variant A27L T34W)"
  ΔΔG°: ">3 kcal/mol"
